Test: PK assay in rat (intravenous injection and oral gavage)
Assay type: in vivo
Settings: plasma, 2 mg/kg; male SD rat, oral administration, 2 mpk, 5% DMSO + 15% Solutol + 80% Saline; read-out: Peak concentration Cmax
Reported endpoint: Cmax (µg/mL)

1 = COc1cc2nn([C@H]3C[C@H](CO)C3)cc2cc1NC(=O)c1cccc(C(F)(F)F)n1
2 = CN(C)c1cc2nn([C@H]3C[C@H](C(C)(C)O)C3)cc2cc1NC(=O)c1cccc(C(F)(F)F)n1
// which entry reports the smaller Cmax, 1 or 2 ? Your choice should be expressed through its label. 1
(1: 0.114 µg/mL, 2: 0.227 µg/mL)

Hello, the source for this data is patent US20220204473A1, in case you need it.
